# System: PPARg DBDmut:RXRa IVT, anti-PPARg (DBD mutation: PPARg1 K132A/R137A, NR concentration 270 nM, RXRa partner concentration 90 nM)
# assay procedure: PBM binding z-score (relative to random genomic background probes); higher = stronger binding; sequences stand for … in GC…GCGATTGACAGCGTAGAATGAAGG
Listing: PBM binding z-score of selected sequences
// no unit, no text: just the number

Below, each entry is followed by its recorded PBM binding z-score result.
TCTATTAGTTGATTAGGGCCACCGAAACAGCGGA; 0.893
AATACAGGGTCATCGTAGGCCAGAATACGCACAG; 1.53
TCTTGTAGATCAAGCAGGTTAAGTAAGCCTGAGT; 0.298

Quote PBM binding z-score reported for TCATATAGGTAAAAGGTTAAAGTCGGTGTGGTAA please.
1.14

For the sequence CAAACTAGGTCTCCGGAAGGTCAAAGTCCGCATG , give its reported PBM binding z-score.
0.561

---

# System: RARa:RXR (NR concentration 270 nM, RXRa partner concentration 90 nM)
# assay procedure: PBM binding z-score (relative to random genomic background probes); higher = stronger binding; sequences stand for … in GC…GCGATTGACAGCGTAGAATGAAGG
measure: PBM binding z-score
When you answer, write just the number.

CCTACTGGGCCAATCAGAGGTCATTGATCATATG; 5.18
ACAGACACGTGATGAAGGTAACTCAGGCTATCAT; 0.352

For the sequence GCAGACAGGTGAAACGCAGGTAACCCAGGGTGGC , report PBM binding z-score.
0.305

Could you please provide reported PBM binding z-score for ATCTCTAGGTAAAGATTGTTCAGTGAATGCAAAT ? Thanks!
0.436

Tell me PBM binding z-score reported for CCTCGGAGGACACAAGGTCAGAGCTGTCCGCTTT
2.25

---

# Tested on: RARb homodimer (NR concentration 270 nM)
# assay procedure: PBM binding z-score (relative to random genomic background probes); higher = stronger binding; sequences stand for … in GC…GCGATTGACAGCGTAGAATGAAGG
PBM binding z-score overview

# annotated cases, reported PBM binding z-score shown
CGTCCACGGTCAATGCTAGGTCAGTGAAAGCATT; 3.02
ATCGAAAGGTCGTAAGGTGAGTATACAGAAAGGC; 3.06

Could you now look at the following sequence, please?
Consider the sequence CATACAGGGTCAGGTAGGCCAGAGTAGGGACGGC and give its recorded PBM binding z-score.
3

---

# Test system: PPARg:RXRa IVT, anti-PPARg (NR concentration 270 nM, RXRa partner concentration 90 nM)
# assay procedure: PBM binding z-score (relative to random genomic background probes); higher = stronger binding; sequences stand for … in GC…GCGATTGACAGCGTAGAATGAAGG
measure: PBM binding z-score
I'd appreciate a reply containing only the number, no unit.

Some solved cases for reference:
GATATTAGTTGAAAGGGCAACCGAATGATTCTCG; 1.16
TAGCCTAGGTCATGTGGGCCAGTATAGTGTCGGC; 3.41
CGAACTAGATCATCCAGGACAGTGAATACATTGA; 1.22
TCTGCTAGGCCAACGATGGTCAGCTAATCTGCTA; 0.619

Report measured PBM binding z-score; entry is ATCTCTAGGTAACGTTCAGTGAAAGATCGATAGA
2.87

Name the recorded PBM binding z-score of the item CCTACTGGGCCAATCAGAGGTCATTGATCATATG in your answer.
4.19

Report PBM binding z-score for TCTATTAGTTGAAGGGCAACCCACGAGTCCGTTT
0.706
